TESTED SYSTEM: LXRβ (Homo sapiens)
Construct: Co-transfection expression plasmids, comprising full-length LXRα (pCMX-h LXRα[…] or LXRβ (pCMX-hLXRβ)); expressed in transfected cells; host or cells: CV-1 African Green Monkey Kidney Cells
Sequence (P55055 1-460): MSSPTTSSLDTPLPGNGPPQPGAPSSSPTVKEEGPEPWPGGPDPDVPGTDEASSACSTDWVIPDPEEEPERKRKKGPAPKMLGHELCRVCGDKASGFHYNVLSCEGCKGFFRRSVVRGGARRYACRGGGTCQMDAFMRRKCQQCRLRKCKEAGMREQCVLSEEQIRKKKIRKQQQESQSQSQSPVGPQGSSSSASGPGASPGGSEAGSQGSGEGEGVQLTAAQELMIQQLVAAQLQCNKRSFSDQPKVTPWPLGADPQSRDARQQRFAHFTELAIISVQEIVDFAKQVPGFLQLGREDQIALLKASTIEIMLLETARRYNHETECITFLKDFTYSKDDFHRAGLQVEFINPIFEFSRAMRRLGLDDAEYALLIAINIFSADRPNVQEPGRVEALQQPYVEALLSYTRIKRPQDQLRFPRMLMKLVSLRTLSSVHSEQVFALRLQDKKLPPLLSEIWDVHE
Sequence (P19793 1-462 partner): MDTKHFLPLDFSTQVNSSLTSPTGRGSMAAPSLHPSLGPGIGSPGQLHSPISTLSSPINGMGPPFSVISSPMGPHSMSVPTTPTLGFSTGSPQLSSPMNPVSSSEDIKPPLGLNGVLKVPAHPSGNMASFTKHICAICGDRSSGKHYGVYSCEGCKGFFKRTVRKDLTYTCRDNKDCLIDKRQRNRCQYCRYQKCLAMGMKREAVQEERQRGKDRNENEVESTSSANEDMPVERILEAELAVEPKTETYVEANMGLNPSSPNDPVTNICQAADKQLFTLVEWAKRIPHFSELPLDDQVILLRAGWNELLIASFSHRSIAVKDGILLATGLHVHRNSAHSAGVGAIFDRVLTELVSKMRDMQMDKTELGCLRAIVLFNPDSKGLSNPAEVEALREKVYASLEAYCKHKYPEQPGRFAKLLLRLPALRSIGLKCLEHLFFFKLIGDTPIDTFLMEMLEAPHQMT
ASSAY: Co-transfection assay (LXRE luciferase reporter), LXRβ
Assay type: cell-based
CONDITION SET: LXRβ co-transfection; relative to high control 1-(2,4-difluorobenzyl)-2-oxo-6-(4-phenoxyphenyl)-4-(trifluoromethyl)-1,2-dihydropyridine-3-carbonitrile; read-out: % Efficacy
MEASURED ENDPOINT: Emax (%)

// solved cases for Emax follow
Cc1nc(C(F)(F)F)cn1-c1ccc(-c2cccc(S(=O)(=O)N(C)C)c2)cc1-n1nncc1-c1ccc(OC(F)(F)F)cc1 [Example 214]
87
Cc1nc(C(F)(F)F)cn1-c1ccc(-c2cc(F)c(CO)c(S(C)(=O)=O)c2)cc1-n1nncc1-c1ccc(OC(F)(F)F)c(F)c1 [Example 56]
101
CCC(F)(F)c1cn(-c2ccc(-c3cc(F)c(CO)c(S(C)(=O)=O)c3)cc2-c2nc(C)oc2-c2ccc(OC(F)(F)F)cc2)c(C)n1 [Example 518]
49
Cc1nc(-c2cc(-c3cccc(S(C)(=O)=O)c3)ccc2-n2cc(C(F)(F)F)nc2C)c(-c2ccc3c(c2)OCCO3)o1 [Example 443]
75
CCOc1ncc(-c2oc(C)nc2-c2cc(-c3cccc(S(C)(=O)=O)c3)ccc2-n2cc(C(F)(F)F)nc2C)cc1F [Example 471]
45

A: Cc1nc(C(F)(F)F)cn1-c1ccc(-c2cccc(S(C)(=O)=O)c2)cc1-n1nncc1C(F)(F)c1ccc(Cl)cc1 [Example 12]
B: Cc1nc(Cl)cn1-c1ccc(-c2cc(F)c(CO)c(S(C)(=O)=O)c2)cc1-n1nncc1-c1ccc(Cl)cc1 [Example 148]
C: Cc1nc(C(F)F)cn1-c1ccc(-c2cccc(C(C)(C)C(N)=O)c2)cc1-n1nncc1-c1ccc(OC(F)(F)F)cc1 [Example 156]
# rank by Emax, ascending (min first) Give the labels in the order requested.
B, A, C
(B: 42%, A: 62%, C: 93%)

P: Cc1nc(C(F)(F)F)cn1-c1ccc(-c2cccc(S(C)(=O)=O)c2)cc1-n1nncc1Cc1ccccc1Cl [Example 219]
Q: CCC(F)(F)c1cn(-c2ccc(-c3cccc(S(=O)(=O)NC)c3)cc2-n2nncc2-c2ccc(OC(F)(F)F)cc2)c(C)n1 [Example 185]
I would appreciate it if you could say which entry, P or Q , has the lower Emax value. Mark your answer with the label of the selected entry.
P

----------
TESTED SYSTEM: LXRβ (Homo sapiens, UniProt P55055)
Construct: Co-transfection expression plasmids, comprising full-length LXRα (pCMX-h LXRα[…] or LXRβ (pCMX-hLXRβ)); expressed in transfected cells; host or cells: CV-1 African Green Monkey Kidney Cells
ASSAY: Co-transfection assay (LXRE luciferase reporter), LXRβ
Type: cell-based
CONDITION SET: LXRβ co-transfection; relative to high control 1-(2,4-difluorobenzyl)-2-oxo-6-(4-phenoxyphenyl)-4-(trifluoromethyl)-1,2-dihydropyridine-3-carbonitrile; read-out: % Efficacy
MEASURED ENDPOINT: Emax (%)

a: Cc1nc(-c2cc(-c3cccc(S(C)(=O)=O)c3)ccc2-n2cc(C(F)(F)F)nc2C)c(-c2ccc3c(c2)OC(F)(F)O3)o1
b: Cc1nc(-c2cc(-c3ccc(C)c(S(C)(=O)=O)c3)ccc2-n2cc(C(F)(F)F)nc2C)c(-c2ccc(C(F)(F)F)nc2Cl)o1
I would appreciate it if you could say which entry, a or b , has the lower Emax value. Mark your answer with the label of the selected entry.
b
(b: 39%, a: 95%)

P: Cc1nc(C(F)F)cn1-c1ccc(-c2cccc(S(C)(=O)=O)c2)cc1-n1nncc1-c1ccc(OC(F)(F)F)c(F)c1
Q: CC(=O)c1ccc(-c2cnnn2-c2cc(-c3cccc(S(C)(=O)=O)c3)ccc2-n2cc(C(F)(F)F)nc2C)cc1
I would appreciate it if you could say which entry, P or Q , has the lower Emax value. Mark your answer with the label of the selected entry.
Q

----------
TESTED SYSTEM: LXRβ (Homo sapiens, UniProt P55055)
Construct: Co-transfection expression plasmids, comprising full-length LXRα (pCMX-h LXRα[…] or LXRβ (pCMX-hLXRβ))
ASSAY: Co-transfection assay (LXRE luciferase reporter), LXRβ
CONDITION SET: CV-1 cells transfected with pCMX-hLXRβ and LXREx1-Tk-Luciferase; 20 hours incubation
MEASURED ENDPOINT: EC50 (nM)

// solved cases for EC50 follow
Cc1ccc(C(C)c2cnnn2-c2cc(-c3cc(Cl)c(CO)c(S(C)(=O)=O)c3)ccc2-n2cc(C(F)(F)F)nc2C)cc1 (stereo not drawn)
103
Cc1nc(-c2cc(-c3ccc(CO)c(S(C)(=O)=O)c3)ccc2-n2cc(C(F)(F)F)nc2C)c(-c2cc(F)c(OC(F)F)c(F)c2)o1
89
CCOCc1ccc(-c2ccc(-n3cc(C(F)(F)F)nc3C)c(-n3nncc3-c3ccc(OC(F)(F)F)cc3)c2)cc1S(C)(=O)=O
118

1: Cc1nc(-c2cc(-c3cccc(S(=O)(=O)C(F)F)c3)ccc2-n2cc(C(F)(F)F)nc2C)c(-c2ccc(OC(F)F)c(F)c2)o1
2: Cc1nc(-c2ccc3c(c2)OC(F)(F)O3)c(-c2cc(-c3cccc(S(C)(=O)=O)c3)ccc2-n2cc(C(F)(F)F)nc2C)o1
I would appreciate it if you could say which entry, 1 or 2 , has the lower EC50 value. Mark your answer with the label of the selected entry.
2

----------
TESTED SYSTEM: LXRβ (Homo sapiens)
Construct: Co-transfection expression plasmids, comprising full-length LXRα (pCMX-h LXRα[…] or LXRβ (pCMX-hLXRβ))
Sequence (P55055 1-460): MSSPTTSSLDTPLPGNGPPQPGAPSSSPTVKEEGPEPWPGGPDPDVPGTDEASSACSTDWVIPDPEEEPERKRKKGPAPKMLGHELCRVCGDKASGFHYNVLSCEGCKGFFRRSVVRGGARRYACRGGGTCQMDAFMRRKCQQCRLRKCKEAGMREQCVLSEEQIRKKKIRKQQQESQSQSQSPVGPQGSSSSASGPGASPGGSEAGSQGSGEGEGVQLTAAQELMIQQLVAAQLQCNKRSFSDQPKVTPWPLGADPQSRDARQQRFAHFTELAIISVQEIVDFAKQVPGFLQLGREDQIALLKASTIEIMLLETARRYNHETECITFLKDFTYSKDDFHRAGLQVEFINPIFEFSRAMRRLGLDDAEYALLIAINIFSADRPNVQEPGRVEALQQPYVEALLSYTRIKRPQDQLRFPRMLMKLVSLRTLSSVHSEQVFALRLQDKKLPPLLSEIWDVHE
Sequence (P19793 1-462 partner): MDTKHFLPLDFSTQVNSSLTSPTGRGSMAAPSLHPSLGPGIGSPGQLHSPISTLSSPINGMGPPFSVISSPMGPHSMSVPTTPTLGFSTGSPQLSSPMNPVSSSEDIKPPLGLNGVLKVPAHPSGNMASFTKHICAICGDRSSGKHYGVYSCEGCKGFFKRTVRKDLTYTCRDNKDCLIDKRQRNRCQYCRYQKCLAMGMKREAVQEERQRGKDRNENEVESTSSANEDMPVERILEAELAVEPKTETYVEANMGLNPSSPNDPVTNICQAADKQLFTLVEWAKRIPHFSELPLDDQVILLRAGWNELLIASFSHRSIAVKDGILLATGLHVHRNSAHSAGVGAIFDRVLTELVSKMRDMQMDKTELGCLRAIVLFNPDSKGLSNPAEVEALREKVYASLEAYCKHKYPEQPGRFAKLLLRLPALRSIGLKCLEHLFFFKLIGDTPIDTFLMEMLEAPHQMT
ASSAY: Co-transfection assay (LXRE luciferase reporter), LXRβ
CONDITION SET: CV-1 cells transfected with pCMX-hLXRβ and LXREx1-Tk-Luciferase; 20 hours incubation
MEASURED ENDPOINT: EC50 (nM)

// solved cases for EC50 follow
COc1cc(-c2oc(C)nc2-c2cc(-c3cccc(S(C)(=O)=O)c3)ccc2-n2cc(C(F)(F)F)nc2C)ccc1OC(F)F [Example 380]
53
COc1ncc(F)cc1-c1oc(C)nc1-c1cc(-c2cc(F)c(CO)c(S(C)(=O)=O)c2)ccc1-n1cc(C(F)(F)F)nc1C [Example 401]
272

A: Cc1nc(C(F)(F)F)cn1-c1c(F)cc(-c2ccc(CO)c(S(C)(=O)=O)c2)cc1-n1nncc1-c1ccc(Cl)cc1 [Example 210]
B: Cc1nc(C(F)(F)F)cn1-c1ccc(-c2cc(F)c(CO)c(S(C)(=O)=O)c2)cc1-n1nncc1Cc1cccc(Cl)c1 [Example 120]
C: COc1ccc(-c2oc(C)nc2-c2cc(-c3cccc(S(C)(=O)=O)c3)ccc2-n2cc(C(F)(F)F)nc2C)cn1 [Example 569]
D: Cc1nc(-c2cc(-c3cccc(S(=O)(=O)C(F)F)c3)ccc2-n2cc(C(F)(F)F)nc2C)c(-c2ccc3c(c2)OC(F)(F)O3)o1 [Example 417]
Order the records so the highest EC50 appears first and the lowest last. Give the labels in the order requested.
B, A, C, D
